Origin of values: ChEMBL document CHEMBL6083269

assay: Selectivity index, ratio of IC50 for african green monkey Vero cells to IC50 for Leishmania major IR-173 (MHO-M/IR/-173) promastigote; type: toxicity, cell-based; settings: read-out: Ratio IC50
parameter measured: selectivity ratio
Number, no unit, nothing else.

# count of solved cases: 2
smiles notation	parameter measured	readout value
C#CCn1cc(\C=N/N=C/C=C/c2ccccc2)c2cc([N+](=O)[O-])ccc21	selectivity ratio	3
C#CCn1cc(/C=N\N=C\c2ccco2)c2cc([N+](=O)[O-])ccc21	selectivity ratio	20

Qu. Please report the recorded selectivity ratio for "C#CCn1cc(/C=N\N=C\c2ccc([N+](=O)[O-])o2)c2cc([N+](=O)[O-])ccc21" .
Ans. 106

###

experiment: Selectivity index, ratio of IC50 for african green monkey Vero cells to IC50 for static antileishmanial activity against Leishmania major NIH-S (MHOM/SN/74/Seidman) amastigote; format: toxicity, cell-based; details: read-out: Ratio IC50
selectivity ratio listing for selected molecules.
Write the value as a bare number.

smiles notation	selectivity ratio
C#CCn1cc(/C=N\N=C\c2ccc([N+](=O)[O-])o2)c2cc([N+](=O)[O-])ccc21	7

In the following, a different molecule is considered.
Qu. I have this molecule here, "C#CCn1cc(/C=N\N=C\c2ccc([N+](=O)[O-])s2)c2cc([N+](=O)[O-])ccc21" , and I need its recorded selectivity ratio.
Ans. 142

###

assay: Selectivity index, ratio of IC50 for african green monkey Vero cells to IC50 for Leishmania donovani 9515 (MHOM/IN/95/9151) promastigote; assay type: toxicity, cell-based; conditions: read-out: Ratio IC50
parameter measured: selectivity ratio
Write no unit; give the number alone.

As a guide, the following entries are already answered.
smiles notation	selectivity ratio
C#CCn1cc(/C=N\N=C\c2ccc([N+](=O)[O-])o2)c2cc([N+](=O)[O-])ccc21	40
C#CCn1cc(/C=N\N=C\c2ccc([N+](=O)[O-])s2)c2cc([N+](=O)[O-])ccc21	26
C#CCn1cc(\C=N/N=C/C(C)=C\C)c2cc([N+](=O)[O-])ccc21	8
C#CCn1cc(/C=N/N=C\C=C(C)C)c2cc([N+](=O)[O-])ccc21	8
C#CCn1cc(/C=N\N=C\C(C)=Cc2ccccc2)c2cc([N+](=O)[O-])ccc21	1

# ---- query compound ----
Qu. Sample "C#CCn1cc(/C=N\N=C\c2cccs2)c2cc([N+](=O)[O-])ccc21" — what was its selectivity ratio?
Ans. 2

###

system: Leishmania donovani; test: Antileishmanial activity against Leishmania donovani 9515 (MHOM/IN/95/9151) promastigote incubated for 48 hrs by resazurin dye based plate reader assay; format: functional, organism-based
pIC50: −log10 of the molar value.
parameter measured: pIC50

Below are worked cases with known answers.
smiles notation	parameter measured	readout value
C#CCn1cc(/C=N\N=C\c2ccc([N+](=O)[O-])s2)c2cc([N+](=O)[O-])ccc21	pIC50	5.71
C#CCn1cc(/C=N\N=C/C2CC2)c2cc([N+](=O)[O-])ccc21	pIC50	< 5.00
O=[N+]([O-])c1ccc2[nH]ccc2c1	pIC50	< 5.00
C#CCn1cc(C=O)c2cc([N+](=O)[O-])ccc21	pIC50	< 5.00

Qu. Which pIC50 value is on record for "C#CCn1cc(\C=N/N=C/C=C/c2ccccc2)c2cc([N+](=O)[O-])ccc21" ?
Ans. < 5.00

Qu. Another molecule to look at: "C#CCn1cc(/C=N\N=C\C(C)=Cc2ccccc2)c2cc([N+](=O)[O-])ccc21"
Ans. 5.10

Qu. Moving on to "C#CCn1cc(/C=N\N=C\c2cccs2)c2cc([N+](=O)[O-])ccc21"
Ans. 5.15

Qu. Moving on to the next molecule: "C#CCn1cc(/C=N\N=C/CCC)c2cc([N+](=O)[O-])ccc21"
Ans. < 5.00

Qu. // same read-out, input: "C#CCn1cc(/C=N\N=C\C2CCCCC2)c2cc([N+](=O)[O-])ccc21"
Ans. < 5.00

Qu. Moving on to "C#CCn1cc(/C=N\N=C\c2ccc([N+](=O)[O-])o2)c2cc([N+](=O)[O-])ccc21"
Ans. 6.70

Qu. And what about the molecule "C#CCn1cc(/C=N\N=C\c2cccnc2)c2cc([N+](=O)[O-])ccc21" ?
Ans. < 5.00

Qu. // same read-out, input: "C#CCn1cc(/C=N\N=C\c2ccccn2)c2cc([N+](=O)[O-])ccc21"
Ans. < 5.00

Qu. Follow-up entry: "C#CCn1cc(/C=N\N=C\c2ccco2)c2cc([N+](=O)[O-])ccc21"
Ans. < 5.00

Qu. "C#CCn1cc(/C=N\N=C\c2ccncc2)c2cc([N+](=O)[O-])ccc21" , same question.
Ans. < 5.00

Qu. Next up: "C#CCn1cc(/C=N\N=C\c2nccn2C)c2cc([N+](=O)[O-])ccc21"
Ans. < 5.00

Qu. Now the molecule "C#CCn1cc(/C=N/N=C\C=C(C)C)c2cc([N+](=O)[O-])ccc21"
Ans. 5.00

###

test system: Trypanosoma evansi; assay: Trypanocidal activity against Trypanosoma evansi Tansui incubated for 72 hrs by CellTiter-Glo reagent based […] analysis; type: functional, organism-based
Documented pIC50 across a set of molecules
The scale used: pIC50 is minus the common logarithm of the concentration in molar units.

smiles notation	experimental target	pIC50
C#CCn1cc(/C=N\N=C\c2ccc([N+](=O)[O-])o2)c2cc([N+](=O)[O-])ccc21	Trypanosoma evansi	5.71

Qu. Record "C#CCn1cc(/C=N/N=C\C=C(C)C)c2cc([N+](=O)[O-])ccc21" : what is its pIC50 with Trypanosoma evansi?
Ans. 4.40

###

Items are presented alongside their recorded selectivity ratio.
test: Selectivity index, ratio of IC50 for african green monkey Vero cells to IC50 for static antileishmanial activity against Leishmania donovani 9515 (MHOM/IN/95/9151) amastigote; format: toxicity, cell-based; settings: read-out: Ratio IC50
Enter the number alone.

Look over these answered cases.
smiles notation	selectivity ratio
C#CCn1cc(/C=N/N=C\C=C(C)C)c2cc([N+](=O)[O-])ccc21	152
C#CCn1cc(\C=N/N=C/C=C/c2ccccc2)c2cc([N+](=O)[O-])ccc21	75

Now for a further molecule.
Qu. Returns the measured selectivity ratio for the input molecule. Input: "C#CCn1cc(/C=N\N=C\c2ccc([N+](=O)[O-])o2)c2cc([N+](=O)[O-])ccc21"
Ans. 2

###

system: Trypanosoma evansi; test: Trypanocidal activity against Trypanosoma evansi Tansui incubated for 72 hrs by CellTiter-Glo reagent based […] analysis; format: functional, organism-based
parameter measured: IC50

Recorded IC50, per entry:
smiles notation	experimental target	readout value
C#CCn1cc(\C=N/N=C/C=C/c2ccccc2)c2cc([N+](=O)[O-])ccc21	Trypanosoma evansi	> 70.2 µM
C#CCn1cc(/C=N\N=C\c2cccnc2)c2cc([N+](=O)[O-])ccc21	Trypanosoma evansi	> 75.5 µM

Qu. Please look up its IC50: "C#CCn1cc(/C=N\N=C\c2ccccn2)c2cc([N+](=O)[O-])ccc21"
Ans. > 75.5 µM

###

Listed next: entries and their corresponding selectivity ratio.
experiment: Selectivity index, ratio of IC50 for african green monkey Vero cells to IC50 for Leishmania donovani; format: toxicity, cell-based; details: read-out: Ratio IC50

smiles notation	readout value
O=Cc1ccc([N+](=O)[O-])o1	2

Qu. Give its selectivity ratio value. Item: "O=[N+]([O-])c1ccc(/C=N/N=C/c2ccc(OCc3ccccc3)cc2)o1"
Ans. 400

###

assay: Selectivity index, ratio of CC50 for MDBK to IC50 for Trypanosoma brucei brucei GUTat3.1; format: toxicity, cell-based; settings: cattle, MDBK cells; read-out: Ratio CC50/IC50
Here, each record is paired with measured selectivity ratio data.

Qu. For "C#CCn1cc(/C=N/N=C\C=C(C)C)c2cc([N+](=O)[O-])ccc21" , what is its reported selectivity ratio?
Ans. 1.82

Qu. Now consider "C#CCn1cc(/C=N\N=C\c2ccc([N+](=O)[O-])s2)c2cc([N+](=O)[O-])ccc21" and answer again.
Ans. > 790

Qu. Further, for "C#CCn1cc(/C=N\N=C\C2CCCCC2)c2cc([N+](=O)[O-])ccc21" ?
Ans. > 16

Qu. Try the compound "C#CCn1cc(/C=N\N=C\c2ccc([N+](=O)[O-])o2)c2cc([N+](=O)[O-])ccc21"
Ans. > 222

Qu. Request: "C#CCn1cc(/C=N\N=C\C(C)=Cc2ccccc2)c2cc([N+](=O)[O-])ccc21"
Ans. 0.34

Qu. Also, "C#CCn1cc(/C=N\N=C\c2cccs2)c2cc([N+](=O)[O-])ccc21" please.
Ans. > 13.9

Qu. Also "C#CCn1cc(/C=N\N=C/CC)c2cc([N+](=O)[O-])ccc21" , if possible.
Ans. > 4.49
